# TESTED_ON: KRAS G13D (Homo sapiens, UniProt P01116+P62937, G13D)
# Sequence (P01116 1-169 isoform P01116-2 G13D limits assumed): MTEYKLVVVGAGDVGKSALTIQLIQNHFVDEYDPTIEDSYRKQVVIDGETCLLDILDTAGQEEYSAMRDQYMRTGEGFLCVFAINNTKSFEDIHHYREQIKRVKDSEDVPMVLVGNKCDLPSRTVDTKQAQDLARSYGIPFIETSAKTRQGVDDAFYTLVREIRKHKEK
# Sequence (P62937 whole entry): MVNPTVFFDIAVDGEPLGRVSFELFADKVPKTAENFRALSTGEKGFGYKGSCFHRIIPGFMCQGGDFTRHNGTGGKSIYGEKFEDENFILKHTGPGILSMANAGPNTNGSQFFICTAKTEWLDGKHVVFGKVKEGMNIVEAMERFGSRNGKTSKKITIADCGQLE
# METHOD: Ras-Raf disruption / FRET / MOA assay (BRAF RBD)
# Format: biochemical
# EXPERIMENTAL_SETUP: KRAS G13D FRET data IC50, Ras-Raf disruption, with Cyclophilin A
I'd be grateful if you could share measured IC50 for these entries.

Under KRAS G13D (Homo sapiens, UniProt P01116+P62937, G13D): IC50 value of CCn1c(-c2cccnc2[C@H](C)OC)c2c3cc(ccc31)-c1cc(O)cc(c1)C[C@H](NC(=O)[C@H](C(C)C)N(C)C(=O)CN(C)C(=O)[C@H]1CN1CCCOC)C(=O)N1CCC[C@H](N1)C(=O)OCC(C)(C)C2 (stereo partly shown) ?
100 to 1000 nM

Under KRAS G13D (Homo sapiens, UniProt P01116+P62937, G13D): IC50 value of CCn1c(-c2cccnc2[C@H](C)OC)c2c3cc(ccc31)-c1cc(O)cc(c1)C[C@H](NC(=O)[C@H](C(C)C)N(C)C(=O)CN(C)C(=O)[C@@H]1CN1CC1(C)COC1)C(=O)N1CCC[C@H](N1)C(=O)OCC(C)(C)C2 (stereo partly shown) ?
100 to 1000 nM

Under KRAS G13D (Homo sapiens, UniProt P01116+P62937, G13D): IC50 value of CC[C@@H]1N[C@@H]1C(=O)N(C)CC(=O)N(C)[C@H](C(=O)N[C@H]1Cc2cc(O)cc(c2)-c2ccc3c(c2)c(c(-c2cccnc2[C@H](C)OC)n3CC)CC(C)(C)COC(=O)[C@@H]2CCCN(N2)C1=O)C(C)C ?
10 to 100 nM

Under KRAS G13D (Homo sapiens, UniProt P01116+P62937, G13D): IC50 value of CCn1c(-c2cccnc2[C@H](C)OC)c2c3cc(ccc31)-c1cc(O)cc(c1)C[C@H](NC(=O)[C@H](C(C)C)N(C)C(=O)CN(C)C(=O)[C@H]1N[C@H]1C(F)(F)F)C(=O)N1CCC[C@H](N1)C(=O)OCC(C)(C)C2 ?
10 to 100 nM

Under KRAS G13D (Homo sapiens, UniProt P01116+P62937, G13D): IC50 value of CCn1c(-c2cccnc2[C@H](C)OC)c2c3cc(ccc31)-c1cc(O)cc(c1)C[C@H](NC(=O)[C@H](C(C)C)N(C)C(=O)CN(C)C(=O)[C@H]1CN1)C(=O)N1CCC[C@H](N1)C(=O)OCC(C)(C)C2 (single isomer, unassigned) [Example 42A] ?
10 to 100 nM

Under KRAS G13D (Homo sapiens, UniProt P01116+P62937, G13D): IC50 value of CCn1c(-c2cccnc2[C@H](C)OC)c2c3cc(ccc31)-c1cc(O)cc(c1)C[C@H](NC(=O)[C@H](C(C)C)N(C)C(=O)C13CC(CN1C(=O)[C@@H]1CN1)C3)C(=O)N1CCC[C@H](N1)C(=O)OCC(C)(C)C2 ?
100 to 1000 nM

Under KRAS G13D (Homo sapiens, UniProt P01116+P62937, G13D): IC50 value of CCn1c(-c2cccnc2[C@H](C)OC)c2c3cc(ccc31)-c1cc(O)cc(c1)C[C@H](NC(=O)[C@H](C(C)C)N(C)C(=O)CN(C)C(=O)[C@H]1CN1CCOC)C(=O)N1CCC[C@H](N1)C(=O)OCC(C)(C)C2 (stereo partly shown) ?
100 to 1000 nM

Under KRAS G13D (Homo sapiens, UniProt P01116+P62937, G13D): IC50 value of CCn1c(-c2cc(N3CCN(C)CC3)cnc2[C@H](C)OC)c2c3cc(ccc31)-c1cc(O)cc(c1)C[C@H](NC(=O)[C@H](C1CCCC1)N(C)C(=O)CN(C)C(=O)[C@@H]1N[C@@H]1C1CC1)C(=O)N1CCC[C@H](N1)C(=O)OCC(C)(C)C2 ?
10 to 100 nM

Under KRAS G13D (Homo sapiens, UniProt P01116+P62937, G13D): IC50 value of CCn1c(-c2cccnc2[C@H](C)OC)c2c3cc(ccc31)-c1cc(O)cc(c1)C[C@H](NC(=O)[C@H](C(C)C)N1CC[C@@H](NC(=O)[C@H]3CN3)C1=O)C(=O)N1CCC[C@H](N1)C(=O)OCC(C)(C)C2 ?
10 to 100 nM

Under KRAS G13D (Homo sapiens, UniProt P01116+P62937, G13D): IC50 value of CCn1c(-c2cccnc2[C@H](C)OC)c2c3cc(ccc31)-c1cc(O)cc(c1)C[C@H](NC(=O)[C@H](C(C)C)N(C)C(=O)CN(C)C(=O)[C@@H]1N[C@@H]1C(F)(F)F)C(=O)N1CCC[C@H](N1)C(=O)OCC(C)(C)C2 ?
10 to 100 nM

Under KRAS G13D (Homo sapiens, UniProt P01116+P62937, G13D): IC50 value of CCn1c(-c2cccnc2[C@H](C)OC)c2c3cc(ccc31)-c1cc(O)cc(c1)C[C@H](NC(=O)[C@H](C(C)C)N(C)C(=O)CN(C)C(=O)[C@@H]1N[C@H]1C(F)(F)F)C(=O)N1CCC[C@H](N1)C(=O)OCC(C)(C)C2 ?
10 to 100 nM

Under KRAS G13D (Homo sapiens, UniProt P01116+P62937, G13D): IC50 value of CCn1c(-c2cccnc2[C@H](C)OC)c2c3cc(ccc31)-c1cc(O)cc(c1)C[C@H](NC(=O)[C@H](C(C)C)N(C)C(=O)[C@]13C[C@H]1CCN3C(=O)[C@@H]1CN1)C(=O)N1CCC[C@H](N1)C(=O)OCC(C)(C)C2 ?
100 to 1000 nM

Under KRAS G13D (Homo sapiens, UniProt P01116+P62937, G13D): IC50 value of CCn1c(-c2cccnc2[C@H](C)OC)c2c3cc(ccc31)-c1cc(O)cc(c1)C[C@H](NC(=O)[C@H](C(C)C)N(C)C(=O)CN(C)C(=O)[C@H]1CN1CCCN1CCCC1=O)C(=O)N1CCC[C@H](N1)C(=O)OCC(C)(C)C2 (stereo partly shown) ?
100 to 1000 nM

Under KRAS G13D (Homo sapiens, UniProt P01116+P62937, G13D): IC50 value of CCn1c(-c2cccnc2[C@H](C)OC)c2c3cc(ccc31)-c1cc(O)cc(c1)C[C@H](NC(=O)[C@H](C1CCCC1)N(C)C(=O)CN(C)C(=O)[C@@H]1N[C@@H]1C1CC1)C(=O)N1CCC[C@H](N1)C(=O)OCC(C)(C)C2 ?
10 to 100 nM

Under KRAS G13D (Homo sapiens, UniProt P01116+P62937, G13D): IC50 value of CCn1c(-c2cccnc2[C@H](C)OC)c2c3cc(ccc31)-c1cc(O)cc(c1)C[C@H](NC(=O)[C@H](C(C)C)N(C)C(=O)CN(C)C(=O)[C@@H]1N[C@@H]1C1CC1)C(=O)N1CCC[C@H](N1)C(=O)OCC(C)(C)C2 ?
10 to 100 nM

Under KRAS G13D (Homo sapiens, UniProt P01116+P62937, G13D): IC50 value of CCn1c(-c2cccnc2[C@H](C)OC)c2c3cc(ccc31)-c1cc(O)cc(c1)C[C@H](NC(=O)[C@H](C1CCCC1)N(C)C(=O)[C@H](C)N(C)C(=O)[C@@H]1N[C@@H]1C1CC1)C(=O)N1CCC[C@H](N1)C(=O)OCC(C)(C)C2 ?
100 to 1000 nM

Data provenance is patent US20230233569A1.
